I'd appreciate it if you could supply inhibition of growth at 50 pg/mL values for the items below.
Tested on: Escherichia coli
Experimental Protocol: Antibacterial activity against Escherichia coli MTCC 119 at 5 x 10^-5 ug/ml after 24 hrs by disk diffusion assay
Assay type: functional
Measurement Setup: MTCC 119, 24 h, read-out: GI
Give bare numbers, in %.

Known inhibition of growth at 50 pg/mL results, listed for orientation:
> print(dat)
                                   molecule  endpoint.unit  reading
1  Cc1ccc2occ(C3N=C(c4ccccc4)SS3)c(=O)c2c1 (centres undefined)              %       30
2  O=c1c(C2N=C(c3ccccc3)SS2)coc2ccccc12 (centres undefined)              %     56.7
3  O=c1c(C2N=C(c3ccccc3)SS2)coc2ccc(Cl)cc12 (centres undefined)              %     49.6
4  O=c1c(C(=S)Nc2ccccc2)coc2cc(Cl)c(Cl)cc12              %     78.3
5  O=c1c(C2N=C(c3ccccc3)SS2)coc2cc(Cl)c(F)cc12 (centres undefined)              %       14

Provide the reported inhibition of growth at 50 pg/mL of each entry below, same order.
1. O=c1c(C2N=C(c3ccccc3)SS2)coc2ccc(F)cc12 (centres undefined)
2. O=c1c(C(=S)Nc2ccccc2)coc2ccccc12
3. O=c1c(C(=S)Nc2ccccc2)coc2ccc(F)cc12
4. O=c1c(C(=S)Nc2ccccc2)coc2cc(Cl)ccc12

[12.3, 85.5, 73.8, 42.6]
